Taken from patent US20250263490A1.

- ASSAY_SYSTEM: T1, recombinant human domain 1-3His6 of the cation-independent mannose-6-phosphate receptor (human, UniProt P11717 41-467)
- T1 construct: Biotinylated (NHS-PEG4-biotin) for BLI; Glycosylated; also called hDom1-3His6; hCI-M6PRD1-D3
- METHOD: in-tandem competitive BLI, biotinylated hDom1-3His6 on SA sensors, purified VHH at 400 nM
REPORTED_METRIC: binding result

BINDER	MEAS_VALUE
humanized VHH7 variant VHH7 h2 (VHH, made in E. coli) VHH: DVQLVESGGGLVQPGGSLRLSCAASGIIFSDNRMDWYRQAPGKQREWVATLASYGWKTYADSVKGRFTISRDNSKNTVYLQMNSLRPEDTAVYYCKASSPVLNDIWGQGTLVTVSS	binds
humanized VHH8 variant VHH8 h3 (VHH, made in E. coli) VHH: DVQLVESGGGLVQAGGSLRLSCAASGRTFNTYNWGWFRQAPGKEREFVAAIRWSSSKTSYADSVKGRFTISRDNSKNTVYLQMNSLRPEDTAVYYCAASIVDFTTNPSHFGSWGQGTLVTVSS	binds
humanized VHH7 variant VHH7 h3 (VHH, made in E. coli) VHH: DVQLVESGGGLVQPGGSLRLSCAASGIIFSDNRMDWYRQAPGKQREWVATLASYGWKTYADSVKGRFTISRDNTKNTVYLQMNSLRPEDTAVYYCKASSPVLNDIWGQGTLVTVSS	binds
humanized VHH8 variant VHH8 h1 (VHH, made in E. coli) VHH: EVQLVESGGGLVQPGGSLRLSCAASGRTFNTYNWGWFRQAPGKEREFVAAIRWSSSKTSYADSVKGRFTISRDNSKNTVYLQMNSLRPEDTAVYYCAASIVDFTTNPSHFGSWGQGTLVTVSS	binds
